Method Summary: pharmacokinetics in serum after single i.p. administration
Type: in vivo, rat
Details: male, Wistar, rat, ip, 0.3 mg/kg i.p., single
Assay Metric: AUC(0-t) (ng·h/mL)
Field format: number, assumed ng·h/mL, no unit text.

Inquiry: // AUC(0-t) lookup, key: CN1CCN(c2nc(N)nc(C(C)(C)Sc3ccc4ccccc4c3)n2)CC1
Reply text: 14

====

Method Summary: pharmacokinetics in serum after single i.p. administration
Assay type: in vivo, rat
Details: male, Wistar, rat, ip, 0.3 mg/kg i.p., single
Assay Metric: CL/F
Could you give the number and then its unit, please?

Inquiry: Looking for the measured CL/F of CN1CCN(c2nc(N)nc(C(C)(C)Sc3ccc4ccccc4c3)n2)CC1 , can you help?
Reply text: 255 mL/min/kg

====

Method Summary: pharmacokinetics in serum after single i.p. administration
Assay type: in vivo, rat
Details: male, Wistar, rat, ip, 0.3 mg/kg i.p., single
Protocol: Standard laboratory food (LSM-B) and filtered water as well as environment enrichment were freely available. Animals were randomly divided into treatment groups using a computer-based random order generator. […] The serum concentration–time data were analyzed by a noncompartmental method using the WinNonlin 8.2 nonlinear least-squares regression program (Pharsight Corporation, a Certara Company, Princeton, NJ, USA) to obtain pharmacokinetic parameters. […]
Assay Metric: Tmax (min)
Write the number in min without appending the unit.

Inquiry: Which Tmax value is on record for CN1CCN(c2nc(N)nc(C(C)(C)Sc3ccc4ccccc4c3)n2)CC1 ?
Reply text: 5

====

Method Summary: tissue distribution pharmacokinetics after single i.p. administration
Assay type: in vivo, rat
Details: male, Wistar, rat, lungs (relative to serum), ip, 1 mg/kg, lungs, 1.0 mg/kg i.p.; read-out: AUC ratio (tissue-to-serum AUC0–t)
Assay Metric: Kp

Inquiry: Reported Kp, molecule CN1CCN(c2nc(N)nc(C(C)(C)Sc3ccc4ccccc4c3)n2)CC1 : ____
Reply text: 14.1

====

Method Summary: pharmacokinetics in serum after single i.p. administration
Assay type: in vivo, rat
Details: male, Wistar, rat, ip, 1.0 mg/kg i.p., single
Assay Metric: CL/F
Number first, unit second.

Inquiry: Record request: CL/F value, item CN1CCN(c2nc(N)nc(C(C)(C)Sc3ccc4ccccc4c3)n2)CC1
Reply text: 313 mL/min/kg

====

Method Summary: tissue distribution pharmacokinetics after single i.p. administration
Format: in vivo, rat
Details: male, Wistar, rat, kidneys/serum, ip, 1 mg/kg, kidneys, 1.0 mg/kg i.p.; read-out: AUC ratio (tissue-to-serum AUC0–t)
Assay Metric: Kp
Lab note: jot the number down without any unit.

Inquiry: Param item = CN1CCN(c2nc(N)nc(C(C)(C)Sc3ccc4ccccc4c3)n2)CC1 [WA-22] ; retrieve measured Kp.
Reply text: 5.47

====

Method Summary: tissue distribution pharmacokinetics after single i.p. administration
Type: in vivo, rat
Details: male, Wistar, rat, liver, ip, 1 mg/kg, liver, 1.0 mg/kg i.p.; read-out: Tmax (converted)
Assay Metric: Tmax
Please format your answer as a value with the unit trailing.

Inquiry: Item CN1CCN(c2nc(N)nc(C(C)(C)Sc3ccc4ccccc4c3)n2)CC1 [WA-22] has what recorded Tmax?
Reply text: 5 min

====

Method Summary: tissue distribution pharmacokinetics after single i.p. administration
Format: in vivo, rat
Details: male, Wistar, rat, brain, ip, 1 mg/kg, brain, 1.0 mg/kg i.p.; read-out: Cmax
Description: Standard laboratory food (LSM-B) and filtered water as well as environment enrichment were freely available. Animals were randomly divided into treatment groups using a computer-based random order generator. […] The interday and intraday precision and accuracy of quality control samples evaluated in the serum and tissue homogenates were within 15%. […] The MRT is calculated to be […], where AMUC0-∞ is the area under the first moment curve from the time of dosing to infinity. […]
Assay Metric: Cmax (ng/g)
Reply numerically in ng/g, unit not repeated.

Inquiry: I am curious: what Cmax value has been reported for CN1CCN(c2nc(N)nc(C(C)(C)Sc3ccc4ccccc4c3)n2)CC1 [WA-22] ?
Reply text: 115

====

Method Summary: tissue distribution pharmacokinetics after single i.p. administration
Format: in vivo, rat
Details: male, Wistar, rat, kidneys/serum, ip, 0.3 mg/kg, kidneys, 0.3 mg/kg i.p.; read-out: AUC ratio (tissue-to-serum AUC0–t)
Assay Metric: Kp
Keep the answer to the number alone.

Inquiry: Would you mind telling me what Kp value was observed for CN1CCN(c2nc(N)nc(C(C)(C)Sc3ccc4ccccc4c3)n2)CC1 [WA-22] ?
Reply text: 3.93

====

Method Summary: tissue distribution pharmacokinetics after single i.p. administration
Format: in vivo, rat
Details: male, Wistar, rat, kidneys/serum, ip, 1 mg/kg, kidneys-to-serum, 1 mg/kg i.p.; read-out: Cmax (ng/g)/Cmax (ng/mL)
Assay Metric: Kp
Enter a number only.

Inquiry: I am curious: what Kp value has been reported for CN1CCN(c2nc(N)nc(C(C)(C)Sc3ccc4ccccc4c3)n2)CC1 ?
Reply text: 3.41

====

Method Summary: tissue distribution pharmacokinetics after single i.p. administration
Format: in vivo, rat
Details: male, Wistar, rat, brain, ip, 0.3 mg/kg, brain, 0.3 mg/kg i.p.; read-out: Cmax
Assay Metric: Cmax
The reply must contain the numeric value and, after it, the unit.

Inquiry: Look up Cmax: CN1CCN(c2nc(N)nc(C(C)(C)Sc3ccc4ccccc4c3)n2)CC1 [WA-22]
Reply text: 30.7 ng/g

====

Method Summary: tissue distribution pharmacokinetics after single i.p. administration
Type: in vivo, rat
Details: male, Wistar, rat, liver, ip, 0.3 mg/kg, liver, 0.3 mg/kg i.p.; read-out: Tmax (converted)
Assay Metric: Tmax

Inquiry: Requested read-out: Tmax. Entry: CN1CCN(c2nc(N)nc(C(C)(C)Sc3ccc4ccccc4c3)n2)CC1
Reply text: 5 min

====

Method Summary: tissue distribution pharmacokinetics after single i.p. administration
Assay type: in vivo, rat
Details: male, Wistar, rat, liver/serum, ip, 0.3 mg/kg, liver, 0.3 mg/kg i.p.; read-out: AUC ratio (tissue-to-serum AUC0–t)
Assay Metric: Kp
Just the number.

Inquiry: Looking for the measured Kp of CN1CCN(c2nc(N)nc(C(C)(C)Sc3ccc4ccccc4c3)n2)CC1 , can you help?
Reply text: 4.75

====

Method Summary: tissue distribution pharmacokinetics after single i.p. administration
Format: in vivo, rat
Details: male, Wistar, rat, kidneys/serum, ip, 1 mg/kg, kidneys-to-serum, 1 mg/kg i.p.; read-out: AUC0–∞ (ng·h/g)/AUC0–∞ (ng·h/mL)
Assay Metric: Kp
Give your answer as a number; write no unit.

Inquiry: Param item = CN1CCN(c2nc(N)nc(C(C)(C)Sc3ccc4ccccc4c3)n2)CC1 [WA-22] ; retrieve measured Kp.
Reply text: 4.96

====

Method Summary: tissue distribution pharmacokinetics after single i.p. administration
Type: in vivo, rat
Details: male, Wistar, rat, liver/serum, ip, 1 mg/kg, liver-to-serum, 1 mg/kg i.p.; read-out: AUC0–∞ (ng·h/g)/AUC0–∞ (ng·h/mL)
Assay Metric: Kp

Inquiry: Data request, read-out Kp, for CN1CCN(c2nc(N)nc(C(C)(C)Sc3ccc4ccccc4c3)n2)CC1 [WA-22]
Reply text: 5.11

====

Method Summary: tissue distribution pharmacokinetics after single i.p. administration
Assay type: in vivo, rat
Details: male, Wistar, rat, brain/serum, ip, 1 mg/kg, brain-to-serum, 1 mg/kg i.p.; read-out: Cmax (ng/g)/Cmax (ng/mL)
Assay Metric: Kp

Inquiry: Item under review: CN1CCN(c2nc(N)nc(C(C)(C)Sc3ccc4ccccc4c3)n2)CC1 . Reported Kp?
Reply text: 1.99

====

Method Summary: tissue distribution pharmacokinetics after single i.p. administration
Format: in vivo, rat
Details: male, Wistar, rat, ip; lungs, 0.3 mg/kg i.p.
Assay Metric: MRT (h)
Write it as a number; the unit h goes unstated.

Inquiry: What value of MRT has been reported for the following compound? CN1CCN(c2nc(N)nc(C(C)(C)Sc3ccc4ccccc4c3)n2)CC1
Reply text: 2.17

====

Method Summary: tissue distribution pharmacokinetics after single i.p. administration
Type: in vivo, rat
Details: male, Wistar, rat, brain/serum, ip, 1 mg/kg, brain, 1.0 mg/kg i.p.; read-out: AUC ratio (tissue-to-serum AUC0–t)
Experimental: Standard laboratory food (LSM-B) and filtered water as well as environment enrichment were freely available. Animals were randomly divided into treatment groups using a computer-based random order generator. […] The interday and intraday precision and accuracy of quality control samples evaluated in the serum and tissue homogenates were within 15%. […] The MRT is calculated to be […], where AMUC0-∞ is the area under the first moment curve from the time of dosing to infinity. […]
Assay Metric: Kp
Just the number.

Inquiry: What Kp value was documented for this compound, CN1CCN(c2nc(N)nc(C(C)(C)Sc3ccc4ccccc4c3)n2)CC1 ?
Reply text: 2.46

====

Method Summary: pharmacokinetics in serum after single i.p. administration
Type: in vivo, rat
Details: male, Wistar, rat, ip, 0.3 mg/kg, 0.3 mg/kg i.p., single, read-out: t1/2λz
Assay Metric: half-life (h)
API: value field is a number in h; no unit string.

Inquiry: # half-life lookup, item CN1CCN(c2nc(N)nc(C(C)(C)Sc3ccc4ccccc4c3)n2)CC1
Reply text: 1.29
